Catalogue of kon values
Target: canine FcRn (FcRn large subunit with canine beta-2-microglobulin) (canine)
Assay: SPR pH 6.0, IgG coupled to CM5, FcRn 50-800 nM
Your answer should be a plain number; it is taken to be in M⁻¹ s⁻¹.

| BINDER | RECORDED_MEASUREMENT |
| --- | --- |
| anti-NGF canine IgGB antibody, Fc variant A426Y (antibody, part only; not given: Anti-NGF variable domains, not shown: another chain or arm of the molecule; small tags and cut ends) Fc: APEMLGGPSVFIFPPKPKDTLLIARTPEVTCVVVDLDPEDPEVQISWFVDGKQMQTAKTQPREEQFNGTYRVVSVLPIGHQDWLKGKQFTCKVNNKALPSPIERTISKARGQAHQPSVYVLPPSREELSKNTVSLTCLIKDFFPPDIDVEWQSNGQQEPESKYRTTPPQLDEDGSYFLYSKLSVDKSRWQRGDTFICYVMHEALHNHYTQESLSHSPGK | 119000 |
| anti-NGF canine IgGB antibody, Fc variant A426H (antibody, part only; not given: Anti-NGF variable domains, not shown: another chain or arm of the molecule; small tags and cut ends) Fc: APEMLGGPSVFIFPPKPKDTLLIARTPEVTCVVVDLDPEDPEVQISWFVDGKQMQTAKTQPREEQFNGTYRVVSVLPIGHQDWLKGKQFTCKVNNKALPSPIERTISKARGQAHQPSVYVLPPSREELSKNTVSLTCLIKDFFPPDIDVEWQSNGQQEPESKYRTTPPQLDEDGSYFLYSKLSVDKSRWQRGDTFICHVMHEALHNHYTQESLSHSPGK | 119000 |

Please indicate kon recorded for anti-NGF canine IgGB antibody, Fc variant A426Y + N434R (antibody, part only; not given: anti-NGF variable domains and light chain, not shown: another chain or arm of the molecule; small tags and cut ends) Fc: APEMLGGPSVFIFPPKPKDTLLIARTPEVTCVVVDLDPEDPEVQISWFVDGKQMQTAKTQPREEQFNGTYRVVSVLPIGHQDWLKGKQFTCKVNNKALPSPIERTISKARGQAHQPSVYVLPPSREELSKNTVSLTCLIKDFFPPDIDVEWQSNGQQEPESKYRTTPPQLDEDGSYFLYSKLSVDKSRWQRGDTFICYVMHEALHRHYTQESLSHSPGK
206000

Source: patent US20240327497A1
